Tested on: Cryptococcus neoformans SLP-BC0012854
Test: In vitro study of inhibition of growth and lethality against yeast (MIC/MLC susceptibility test), isolate H
Assay type: cell-based
Conditions: Cryptococcus neoformans, 2nd pair of lines, read at 72 hr; isolate assigned by line order
Value Kind: Minimum Inhibitory Conc. (MIC), 72 hr. (µg/mL)
Just the number in µg/mL, nothing appended.

Task item: Reported Minimum Inhibitory Conc. (MIC), 72 hr., molecule `COC(=O)c1cc2cc(OCc3ccccc3)ccc2n1CCCCCCCOC(=O)Cc1ccc([N+](C)(C)C)cc1.[I-]` : ____
Reply: 2

Task item: `COC(=O)c1cc2cc(OCc3ccccc3)ccc2n1CCCCCCCOC(=O)c1ccc(CN(C)C)cc1` , same question.
Reply: 32

Task item: C[N+](C)(C)C(Cc1ccccc1)C(=O)OCCCCCCCCOc1ccc(OCc2ccccc2)cc1.[I-] (stereo not shown) , same question.
Reply: 2

---

Test: In vivo toxicity: intraperitoneal (IP) dosage in mice resulting in 50% lethality (LD50)
Conditions: mouse, in vivo; male CD-1 mice, single IP dose, observed 14 days
Value Kind: LD50 at 14 days (mg/kg)
Just the number in mg/kg, nothing appended.

Task item: Reported LD50 at 14 days, molecule `COC(=O)c1cc2cc(OCc3ccccc3)ccc2n1CCCCCCCOC(=O)Cc1ccc([N+](C)(C)C)cc1.[I-]` : ____
Reply: 135

---

I'd appreciate it if you could supply MIC values for the items below.
System: Torulopsis glabrata ERH-BC9938274
Experiment: In vitro study of inhibition of growth and lethality against yeast (MIC/MLC susceptibility test), isolate F
Type: cell-based
Conditions: Nakaseomyces glabratus, ERHBC9938274, 24 h, Torulopsis glabrata, 1st pair of lines, read at 24 hr; isolate assigned by line order; read-out: Minimum Inhibitory Conc. (MIC), 24 hr.
Just the number in µg/mL, nothing appended.

Task item: Reported MIC, compound C[N+](C)(C)C(CCc1ccccc1)C(=O)OCCCCCCCCOc1ccc(OCc2ccccc2)cc1.[I-] (stereo not shown) : ____
Reply: 2

Task item: `C[N+](C)(C)c1ccc(CCCC(=O)OCCCCCCCCOc2ccc(OCc3ccccc3)cc2)cc1.[I-]` , same question.
Reply: 1

Task item: `COC(=O)c1cc2cc(OCc3ccccc3)ccc2n1CCCCCCCOC(=O)Cc1ccc([N+](C)(C)C)cc1.[I-]` , same question.
Reply: 2

---

I'd appreciate it if you could supply MFC values for the items below.
Test system: Candida albicans LH-000664533
Experiment: In vitro study of inhibition of growth and lethality against yeast (MIC/MLC susceptibility test), isolate D
Format: cell-based
Details: LH000664533; Candida albicans, 2nd pair of lines; isolate assigned by line order; read-out: Minimum Lethal Conc. (MLC)

Task item: Reported MFC, compound `COC(=O)c1cc2ccccc2[n+](C)c1-c1c[nH]c2ccccc12.[I-]` : ____
Reply: > 32 µg/mL

Task item: `COC(=O)c1cc2cc(OCc3ccccc3)ccc2n1CCCCCCCOC(=O)c1ccc(CN(C)C)cc1` , same question.
Reply: > 32 µg/mL

Task item: `Cc1[nH]c2ccccc2c1/C=C/C1=[N+](C)c2ccccc2C1(C)C.[Cl-]` , same question.
Reply: > 32 µg/mL

---

System: Candida albicans KJP-000531594
Test: In vitro study of inhibition of growth and lethality against yeast (MIC/MLC susceptibility test), isolate C
Type: cell-based
Conditions: KJP000531594; Candida albicans, 1st pair of lines; isolate assigned by line order; read-out: Minimum Lethal Conc. (MLC)
Value Kind: MFC

Task item: Quick check: MFC on Candida albicans KJP-000531594, item Cc1[nH]c2ccccc2c1/C=C/C1=[N+](C)c2ccccc2C1(C)C.[Cl-] [Compound 1400] ?
Reply: > 32 µg/mL

Task item: COC(=O)c1cc2ccccc2[n+](C)c1-c1c[nH]c2ccccc12.[I-] [Compound 1500] , same question.
Reply: > 32 µg/mL

Task item: COC(=O)c1cc2cc(OCc3ccccc3)ccc2n1CCCCCCCOC(=O)c1ccc(CN(C)C)cc1 [Compound 1096] , same question.
Reply: > 32 µg/mL

Data origin: patent US6673827B1
